Answer each item with its documented IC50.
target: KRAS G13D (Homo sapiens (Human), UniProt P01116+P62937, G13D); assay: Ras-Raf (BRAF RBD) disruption / FRET / MOA assay, KRAS G13D; format: biochemical; conditions: read-out: IC50* KRAS G13D FRET data
Sequence (P01116-2 other isoform, or with tags, fused parts or gaps G13D): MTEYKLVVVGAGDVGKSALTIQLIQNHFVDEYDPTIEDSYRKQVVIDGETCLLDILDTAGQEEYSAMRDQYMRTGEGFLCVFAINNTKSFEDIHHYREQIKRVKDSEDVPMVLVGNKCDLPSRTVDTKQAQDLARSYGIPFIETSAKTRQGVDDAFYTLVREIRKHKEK
Sequence (P62937 whole entry): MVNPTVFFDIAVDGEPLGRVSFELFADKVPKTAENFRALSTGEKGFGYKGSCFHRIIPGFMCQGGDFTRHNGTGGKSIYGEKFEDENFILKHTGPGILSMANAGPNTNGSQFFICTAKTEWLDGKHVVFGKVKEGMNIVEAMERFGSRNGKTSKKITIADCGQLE

{"molecule": "C=CC(=O)N1CC[C@H](C(=O)N(C)[C@H](C(=O)N[C@H]2Cc3csc(n3)-c3ccc4c(c3)c(c(-c3cccnc3COC)n4CC)CC(C)(C)COC(=O)[C@@H]3CCCN(N3)C2=O)C(C)C)C1", "IC50": "> 10000 nM"}
{"molecule": "C=CC(=O)N1CCN(C(=O)N(C)[C@H](C(=O)N[C@H]2Cc3nc(cs3)-c3ccc4c(c3)c(c(-c3cccnc3[C@H](C)OC)n4CC)CC(C)(C)COC(=O)[C@@H]3CCCN(N3)C2=O)C(C)C)C[C@@H]1C (atropisomer, axis not shown)", "IC50": "100 to 1000 nM"}
{"molecule": "C=CC(=O)N1CC2(C1)CN(C(=O)N(C)[C@H](C(=O)N[C@H]1Cc3nc(cs3)-c3ccc4c(c3)c(c(-c3cccnc3[C@H](C)OC)n4CC)CC(C)(C)COC(=O)[C@@H]3CCCN(N3)C1=O)C(C)C)CCO2 (atropisomer, axis not shown)", "IC50": "1000 to 10000 nM"}

Shifting focus to the molecule that follows.
[in] Item under review: C=CC(=O)N1C2CC1CN(C(=O)N(C)[C@H](C(=O)N[C@H]1Cc3nc(cs3)-c3ccc4c(c3)c(c(-c3cccnc3[C@H](C)OC)n4CC)CC(C)(C)COC(=O)[C@@H]3CCCN(N3)C1=O)C(C)C)C2 . Reported IC50?
[out] 1000 to 10000 nM

* * *

molecular target: KRAS Q61H (Homo sapiens (Human), UniProt P01116+P62937, Q61H); experiment: Ras-Raf (BRAF RBD) disruption / FRET / MOA assay, KRAS Q61H; assay type: biochemical; details: Ras-Raf disruption/FRET/MOA assay; class symbols; read-out: KRAS Q61H FRET data IC50
Sequence (P01116-2 other isoform, or with tags, fused parts or gaps Q61H, one chain of several): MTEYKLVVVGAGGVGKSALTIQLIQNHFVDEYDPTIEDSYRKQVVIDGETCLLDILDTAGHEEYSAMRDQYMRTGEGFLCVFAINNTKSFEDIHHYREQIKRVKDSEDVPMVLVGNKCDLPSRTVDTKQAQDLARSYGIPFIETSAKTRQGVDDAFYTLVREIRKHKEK
property-measured: IC50

{"compound": "CCn1c(-c2cccnc2[C@H](C)OC)c2c3cc(ccc31)-c1cccc(c1)C[C@H](NC(=O)[C@@H](CO[C@@H]1CCN(C(=O)C#CC(C)(C)N(C)C)C1)C(C)C)C(=O)N1CCC[C@H](N1)C(=O)OCC(C)(C)C2 (atropisomer, axis not shown) [Example A584]", "IC50": "1000 to 10000 nM"}

# return IC50 for each item in the list
1. C=CC(=O)N1CC[C@@]2(CCN2C(=O)N(C)[C@H](C(=O)N[C@H]2Cc3nc(cs3)-c3ccc4c(c3)c(c(-c3cccnc3[C@H](C)OC)n4CC)CC(C)(C)COC(=O)[C@@H]3CCCN(N3)C2=O)C(C)C)C1 (atropisomer, axis not shown) [Example A661]
2. C=CS(=O)(=O)N1CCC(C(=O)N(C)[C@H](C(=O)N[C@H]2Cc3nc(cs3)-c3ccc4c(c3)c(c(-c3cncnc3)n4CC)CC(C)(C)COC(=O)[C@@H]3CCCN(N3)C2=O)C(C)C)C1 (single isomer, unassigned) [Example A170]
3. CCn1c(-c2cccnc2[C@H](C)OC)c2c3cc(ccc31)-c1csc(n1)C[C@H](NC(=O)[C@@H](F)COC1CN(C(=O)C#CC(C)(C)N(C)C)C1)C(=O)N1CCC[C@H](N1)C(=O)OCC(C)(C)C2 (atropisomer, axis not shown) [Example A626]

[out]
10 to 100 nM
> 10000 nM
100 to 1000 nM
